# System: HCC1937
# procedure_text: relative cell viability, compound + RSL3, vs DMSO (fraction of DMSO control); higher = less growth inhibition
# test_settings: 72 h
Counter-ions that a name gives are not always drawn.
readout_name: relative cell viability
# respond with the number and nothing more

Guide cases for relative cell viability, answers given:
{"compound": "Cc1c(C(=O)Nc2ccc(CO)cc2)nnn1Cc1ccc(Cl)c(Cl)c1 + COC(=O)c1ccc([C@H]2c3[nH]c4ccccc4c3C[C@H](C(=O)OC)N2C(=O)CCl)cc1", "numeric_readout": 0.406}
{"compound": "CCCCCC=CC(=O)CCc1ccc(O)c(OC)c1 [6-Shogaol] + COC(=O)c1ccc([C@H]2c3[nH]c4ccccc4c3C[C@H](C(=O)OC)N2C(=O)CCl)cc1", "numeric_readout": 0.608}
{"compound": "CC(C)c1onc(-c2c(Cl)cccc2Cl)c1COc1ccc(/C=C/c2cccc(C(=O)O)c2)c(Cl)c1 + COC(=O)c1ccc([C@H]2c3[nH]c4ccccc4c3C[C@H](C(=O)OC)N2C(=O)CCl)cc1", "numeric_readout": 0.874}
{"compound": "C=C[C@H]1CN2CC[C@H]1C[C@@H]2[C@@H](O)c1ccnc2ccc(OC)cc12 [Quinidine sulfate] + COC(=O)c1ccc([C@H]2c3[nH]c4ccccc4c3C[C@H](C(=O)OC)N2C(=O)CCl)cc1", "numeric_readout": 0.439}
{"compound": "O=C1C(SCCO)=C(SCCO)C(=O)c2ccccc21 + COC(=O)c1ccc([C@H]2c3[nH]c4ccccc4c3C[C@H](C(=O)OC)N2C(=O)CCl)cc1", "numeric_readout": 0.388}
{"compound": "COc1cc(N2CCN(C)CC2)ccc1Nc1ncc2c(n1)N(C1CCC1)C(=O)N(c1c(C)cccc1C)C2 + COC(=O)c1ccc([C@H]2c3[nH]c4ccccc4c3C[C@H](C(=O)OC)N2C(=O)CCl)cc1", "numeric_readout": 0.334}
{"compound": "COc1ccc([C@@H]2OC[C@H]3[C@@H]2CO[C@@H]3c2ccc(O[C@@H]3O[C@H](CO)[C@@H](O)[C@H](O)[C@H]3O)c(OC)c2)cc1OC [Forsythin] + COC(=O)c1ccc([C@H]2c3[nH]c4ccccc4c3C[C@H](C(=O)OC)N2C(=O)CCl)cc1", "numeric_readout": 0.731}
{"compound": "COc1cccc(CNc2ccc(S(=O)(=O)Nc3nc4ccccc4s3)cc2)c1O + COC(=O)c1ccc([C@H]2c3[nH]c4ccccc4c3C[C@H](C(=O)OC)N2C(=O)CCl)cc1", "numeric_readout": 0.583}
{"compound": "CC(=O)N1CCN(c2ccc(OCC3COC(Cn4ccnc4)(c4ccc(Cl)cc4Cl)O3)cc2)CC1 (stereo not given) [Ketoconazole] + COC(=O)c1ccc([C@H]2c3[nH]c4ccccc4c3C[C@H](C(=O)OC)N2C(=O)CCl)cc1", "numeric_readout": 0.63}

Moving on to the next compound.
Recorded result, Fc1ccc(-c2c3cccc(C(F)(F)F)c3nn2Cc2ccc(F)cc2Cl)cc1 + COC(=O)c1ccc([C@H]2c3[nH]c4ccccc4c3C[C@H](C(=O)OC)N2C(=O)CCl)cc1 , relative cell viability: 0.756

* * *

# Test system: HCC1937;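 further: breast cancer cell viability read out with the CCK-8 kit after co-treatment of each compound with the ferroptosis inducer RSL3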
# procedure_text: relative cell viability, compound + RSL3, vs DMSO (fraction of DMSO control); higher = less growth inhibition
# test_settings: 72 h
readout_name: relative cell viability
# respond with the number and nothing more

Guide cases for relative cell viability, answers given:
{"compound": "CN1CC(O)C2=C/C(=N/NC(N)=O)C(=O)C=C21 (stereo not given) [Carbazochrome] + COC(=O)c1ccc([C@H]2c3[nH]c4ccccc4c3C[C@H](C(=O)OC)N2C(=O)CCl)cc1 [RSL3]", "numeric_readout": 0.451}
{"compound": "CCCCC[C@H](O)CC(=O)CCc1ccc(O)c(OC)c1 [6-Gingerol] + COC(=O)c1ccc([C@H]2c3[nH]c4ccccc4c3C[C@H](C(=O)OC)N2C(=O)CCl)cc1 [RSL3]", "numeric_readout": 0.298}
{"compound": "CC[C@H]1[C@@H](O)[C@@H]2[C@H](CC[C@]3(C)[C@@H]([C@H](C)CCC(=O)O)CC[C@@H]23)[C@@]2(C)CC[C@@H](O)C[C@@H]12 [Obeticholic Acid] + COC(=O)c1ccc([C@H]2c3[nH]c4ccccc4c3C[C@H](C(=O)OC)N2C(=O)CCl)cc1 [RSL3]", "numeric_readout": 0.513}
{"compound": "CN(CCOc1ccc(CC2SC(=O)NC2=O)cc1)c1ccccn1 (stereo not given) [Rosiglitazone] + COC(=O)c1ccc([C@H]2c3[nH]c4ccccc4c3C[C@H](C(=O)OC)N2C(=O)CCl)cc1 [RSL3]", "numeric_readout": 1.26}

Moving on to the next compound.
Recorded result, COC(=O)N(CC(=O)O)Cc1cccc(OCc2nc(-c3ccc(Cl)cc3)oc2C)c1 + COC(=O)c1ccc([C@H]2c3[nH]c4ccccc4c3C[C@H](C(=O)OC)N2C(=O)CCl)cc1 [RSL3] , relative cell viability: 0.538
